- Tested on: K562
- experimentSummary: Cytotoxicity against human K562 cells after 16 hrs by SRB assay
- experimentalParameters: K562, 16 h
measurementType: pIC50
Reminder that pIC50 means the negative base-10 logarithm of the concentration expressed in mol/L.

Recorded pIC50, per entry:
| mol | observed |
| --- | --- |
| COc1nc2sc(C)cn2c1/C=C1/C(=O)Nc2ccccc21 | 6.00 |
| COc1ccc(/C=C\c2cc(OC)c(OC)c(OC)c2)cc1O | 8.40 |
| O=C1Nc2c(ccc3ccccc23)/C1=C\c1c(-c2cccnc2)nc2sccn12 | 6.70 |

Pending compound:
Request: Given the entry O=C1Nc2c(ccc3ccccc23)C1=Cc1c(-c2ccncc2)nc2sccn12 , report its measured pIC50.
Result: 7.52
